FYI, the data here is from patent EP1900728A1.

Items are presented alongside their recorded IC50.
experimental-target: IκBα ubiquitinating enzyme (SCF complex: ROC1, Cullin1, Skp1, His-TrCP1; with E1, UbcH5b) (Homo sapiens, UniProt P62877+P63208+Q13616+Q9Y297)
Construct: His (polyhistidine); made in house; host or cells: insect cells (baculovirus) for the SCF complex and His-E1; E. coli for His-UBCH5b
Sequence (Q9Y297 whole entry): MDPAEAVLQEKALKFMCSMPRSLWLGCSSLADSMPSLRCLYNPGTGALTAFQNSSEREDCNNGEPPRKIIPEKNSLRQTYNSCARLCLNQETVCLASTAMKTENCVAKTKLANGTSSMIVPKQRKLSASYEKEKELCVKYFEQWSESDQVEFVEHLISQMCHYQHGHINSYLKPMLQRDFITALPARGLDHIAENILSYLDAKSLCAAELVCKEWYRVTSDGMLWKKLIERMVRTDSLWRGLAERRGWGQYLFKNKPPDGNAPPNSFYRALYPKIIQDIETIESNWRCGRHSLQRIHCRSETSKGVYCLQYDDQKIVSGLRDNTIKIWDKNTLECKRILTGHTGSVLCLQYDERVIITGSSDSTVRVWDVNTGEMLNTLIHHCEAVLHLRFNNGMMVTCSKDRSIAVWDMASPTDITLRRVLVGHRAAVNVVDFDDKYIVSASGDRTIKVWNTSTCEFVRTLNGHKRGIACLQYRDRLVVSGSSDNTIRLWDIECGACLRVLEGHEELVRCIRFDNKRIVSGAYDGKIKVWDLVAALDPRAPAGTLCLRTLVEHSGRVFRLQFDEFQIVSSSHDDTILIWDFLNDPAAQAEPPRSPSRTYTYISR
Sequence (Q13616 whole entry): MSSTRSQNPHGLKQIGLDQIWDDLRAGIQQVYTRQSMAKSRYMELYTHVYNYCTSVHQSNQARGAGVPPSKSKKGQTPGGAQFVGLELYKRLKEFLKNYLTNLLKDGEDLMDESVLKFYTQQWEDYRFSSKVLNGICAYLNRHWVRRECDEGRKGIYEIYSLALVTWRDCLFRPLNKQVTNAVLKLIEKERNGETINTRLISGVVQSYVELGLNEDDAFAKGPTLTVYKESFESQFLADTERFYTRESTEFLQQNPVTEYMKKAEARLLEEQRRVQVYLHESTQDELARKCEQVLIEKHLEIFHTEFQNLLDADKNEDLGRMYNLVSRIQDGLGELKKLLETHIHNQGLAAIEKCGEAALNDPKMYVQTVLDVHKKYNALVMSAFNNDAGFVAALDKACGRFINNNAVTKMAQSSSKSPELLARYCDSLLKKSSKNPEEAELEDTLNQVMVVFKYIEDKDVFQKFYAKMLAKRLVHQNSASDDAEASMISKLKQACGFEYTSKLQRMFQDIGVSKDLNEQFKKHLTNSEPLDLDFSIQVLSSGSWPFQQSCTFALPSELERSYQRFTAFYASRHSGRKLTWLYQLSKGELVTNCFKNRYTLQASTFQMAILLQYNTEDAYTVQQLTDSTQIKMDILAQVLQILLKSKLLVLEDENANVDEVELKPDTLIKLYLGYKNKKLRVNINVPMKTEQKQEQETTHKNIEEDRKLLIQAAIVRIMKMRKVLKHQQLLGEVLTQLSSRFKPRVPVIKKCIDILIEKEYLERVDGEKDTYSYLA
Sequence (P63208 whole entry): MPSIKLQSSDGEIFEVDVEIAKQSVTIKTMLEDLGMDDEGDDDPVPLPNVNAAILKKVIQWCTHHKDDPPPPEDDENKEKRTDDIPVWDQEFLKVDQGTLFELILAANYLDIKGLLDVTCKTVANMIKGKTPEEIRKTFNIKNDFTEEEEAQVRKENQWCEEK
Sequence (P62877 whole entry): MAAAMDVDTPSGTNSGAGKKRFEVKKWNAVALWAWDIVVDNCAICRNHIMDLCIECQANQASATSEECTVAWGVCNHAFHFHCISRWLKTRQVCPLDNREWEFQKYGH
protocol-notes: Measurement of ubiquitinating enzyme activity (IκBα ubiquitination, time-resolved fluorescence with Eu(K)-labeled ubiquitin and XL665-labeled anti-GST antibody)
Type: biochemical
test-settings: enzyme activity inhibition test, method (1), Table 5; read-out: EVALUATION
Method: Method 1: Measurement of ubiquitinating enzyme activity A recombinant vector His-UBCH5b containing a polyhistidine tag (His) and UBCH5b was prepared. E. coli was transformed with the vector, the protein was expressed, and affinity purification was carried out using Ni-NTA agarose (Qiagen). […]

Here is how some compounds turned out for IC50.
CC1=NN(c2cccc(C(=O)O)c2)C(=O)/C1=C\c1ccc2c(ccn2C(=O)C2CC2)c1 [Compound 530]; < 10 µM
COc1cc(/C=C2\C(=O)N(c3ccc(C(=O)O)cc3)N=C2c2cccnc2)ccc1O [Compound 337]; 10 to 20 µM
COC(=O)N1CCN(c2ccc(C=C3C(=O)N(c4ccc(C(=O)O)cc4)N=C3c3ccncc3)cc2)CC1 [Compound 344]; < 40 µM
CC1=NN(c2ccc(C(=O)O)cc2)C(=O)/C1=C\c1ccc2c(ccn2CC2CCCCC2)c1 [Compound 498]; < 10 µM
COc1ccccc1-c1ccc(/C=C2\C(=O)N(c3cccc(C(=O)O)c3)N=C2c2ccoc2)o1 [Compound 485]; < 10 µM
O=C1/C(=C\c2ccc3c(c2)OCCO3)C(c2cccnc2)=NN1c1ccccc1 [Compound 66]; < 40 µM
O=C1/C(=C\c2ccc3c(c2)OCCO3)C(C2CC2)=NN1c1ccccc1 [Compound 77]; < 10 µM

## Input Requested read-out: IC50. Entry: O=C(O)c1ccc(N2N=C(c3ccccn3)/C(=C/c3ccc(-n4cccn4)cc3)C2=O)cc1 [Compound 294]
## Output < 40 µM

* * *

Items are presented alongside their recorded IC50.
experimental-target: IκBα ubiquitinating enzyme (SCF complex: ROC1, Cullin1, Skp1, His-TrCP1; with E1, UbcH5b) (Homo sapiens, UniProt P62877+P63208+Q13616+Q9Y297)
Construct: His (polyhistidine); made in house; host or cells: insect cells (baculovirus) for the SCF complex and His-E1; E. coli for His-UBCH5b
protocol-notes: Measurement of ubiquitinating enzyme activity (IκBα ubiquitination, time-resolved fluorescence with Eu(K)-labeled ubiquitin and XL665-labeled anti-GST antibody)
Format: biochemical
test-settings: enzyme activity inhibition test, method (1), Table 5; read-out: EVALUATION

Here is how some compounds turned out for IC50.
O=C(O)c1ccc(N2N=C(Cc3ccccc3)/C(=C/c3ccc4ccccc4c3)C2=O)cc1; 10 to 20 µM
O=C(O)c1ccc(N2N=C(c3ccncc3)C(=Cc3ccc4c(c3)OCCO4)C2=O)cc1; 10 to 20 µM
CC1=NN(c2cccc(S(N)(=O)=O)c2)C(=O)/C1=C\c1c[nH]c2ccc(Cl)cc12; < 10 µM
Cn1cc(-c2ccc(/C=C3\C(=O)N(Cc4cccc(O)c4)N=C3c3ccoc3)o2)cn1; 10 to 20 µM
CC1=NN(c2cccc(C(=O)O)c2)C(=O)/C1=C\c1ccc(N2CCC(N3CCCC3)CC2)cc1; 10 to 20 µM

## Input Requested read-out: IC50. Entry: CC1=NN(c2ccc(S(N)(=O)=O)cc2)C(=O)/C1=C\c1ccc(-n2cccn2)cc1
## Output < 10 µM

## Input For CC1=NN(c2ccc(S(N)(=O)=O)cc2)C(=O)C1=Cc1ccc(NC(=O)c2ccco2)cc1 then?
## Output < 10 µM

## Input For COCC1=NN(c2ccc(C(=O)O)cc2)C(=O)/C1=C\c1nccs1 then?
## Output 10 to 20 µM

* * *

experimental-target: IκBα ubiquitinating enzyme (SCF complex: ROC1, Cullin1, Skp1, His-TrCP1; with E1, UbcH5b) (Homo sapiens, UniProt P62877+P63208+Q13616+Q9Y297)
Construct: His (polyhistidine); made in house; host or cells: insect cells (baculovirus) for the SCF complex and His-E1; E. coli for His-UBCH5b
protocol-notes: Measurement of ubiquitinating enzyme activity (IκBα ubiquitination, time-resolved fluorescence with Eu(K)-labeled ubiquitin and XL665-labeled anti-GST antibody)
Type: biochemical
test-settings: enzyme activity inhibition test, method (1), Table 5; read-out: EVALUATION
measured-metric: IC50

CCCCC1=NN(c2ccccc2)C(=O)/C1=C\c1ccc2c(c1)OCCO2; 10 to 20 µM
CC1=NN(c2ccc(C(=O)N(C)CCO)cc2)C(=O)/C1=C\c1ccc2c(c1)OCCO2; 10 to 20 µM
CC1=NN(c2ccc(S(N)(=O)=O)cc2)C(=O)/C1=C\c1ccc(OS(=O)(=O)c2ccc(C(C)(C)C)cc2)cc1; 10 to 20 µM
COCC1=NN(c2ccc(C(=O)O)cc2)C(=O)/C1=C\c1ccc2ccccc2c1; < 10 µM

## Input Requested read-out: IC50. Entry: CC1=NN(c2cccc(C(=O)O)c2)C(=O)/C1=C\c1c[nH]c2ccc(Cl)cc12
## Output < 10 µM

## Input For CC1=NN(c2cccc(C(=O)O)c2)C(=O)/C1=C\c1cccs1 then?
## Output < 40 µM

## Input For COc1cc(/C=C2\C(=O)N(c3ccc(C(=O)O)cc3)N=C2C2CC2)ccc1OCc1ccccc1 then?
## Output < 10 µM

## Input For COc1ccc(C2=NN(c3ccc(C(=O)O)cc3)C(=O)/C2=C\c2ccc(OCc3ccccc3)c(OC)c2)cc1OC then?
## Output < 10 µM

* * *

Items are presented alongside their recorded IC50.
experimental-target: IκBα ubiquitinating enzyme (SCF complex: ROC1, Cullin1, Skp1, His-TrCP1; with E1, UbcH5b) (Homo sapiens, UniProt P62877+P63208+Q13616+Q9Y297)
Construct: His (polyhistidine); made in house; host or cells: insect cells (baculovirus) for the SCF complex and His-E1; E. coli for His-UBCH5b
protocol-notes: Measurement of ubiquitinating enzyme activity (IκBα ubiquitination, time-resolved fluorescence with Eu(K)-labeled ubiquitin and XL665-labeled anti-GST antibody)
Type: biochemical
test-settings: enzyme activity inhibition test, method (1), Table 5; read-out: EVALUATION

O=C(O)c1ccc(N2N=C(c3ccoc3)/C(=C/c3ccc(-n4ccnc4)cc3)C2=O)cc1 [Compound 250]; < 10 µM
CC1=NN(c2ccc(S(N)(=O)=O)cc2)C(=O)/C1=C\c1ccc(N2CCC(CO)CC2)cc1 [Compound 171]; 10 to 20 µM
CC1=NN(c2cccc(C(=O)N3CCCC(C(=O)O)C3)c2)C(=O)/C1=C\c1ccc2[nH]ccc2c1 (stereo not shown) [Compound 376]; < 10 µM

## Input Requested read-out: IC50. Entry: CC1=NN(c2ccc(C(=O)O)cc2)C(=O)/C1=C\c1cc2ccccc2o1 [Compound 429]
## Output < 10 µM

## Input For CCCCC1=NN(c2ccc(C(=O)O)cc2)C(=O)/C1=C\c1ccc2c(c1)OCCO2 [Compound 303] then?
## Output < 10 µM

## Input For Cn1cc(-c2ccc(/C=C3\C(=O)N(c4cccc(C(=O)O)c4)N=C3Cc3ccccc3)o2)cn1 [Compound 510] then?
## Output < 40 µM

## Input For CC1=NN(c2ccc(C(=O)N3CCC(O)C3)cc2)C(=O)/C1=C\c1ccc2c(c1)OCCO2 (stereo not shown) [Compound 413] then?
## Output < 10 µM

* * *

Items are presented alongside their recorded IC50.
experimental-target: IκBα ubiquitinating enzyme (SCF complex: ROC1, Cullin1, Skp1, His-TrCP1; with E1, UbcH5b) (Homo sapiens, UniProt P62877+P63208+Q13616+Q9Y297)
Construct: His (polyhistidine); made in house; host or cells: insect cells (baculovirus) for the SCF complex and His-E1; E. coli for His-UBCH5b
protocol-notes: Measurement of ubiquitinating enzyme activity (IκBα ubiquitination, time-resolved fluorescence with Eu(K)-labeled ubiquitin and XL665-labeled anti-GST antibody)
Assay type: biochemical
test-settings: enzyme activity inhibition test, method (1), Table 5; read-out: EVALUATION
Method: Method 1: Measurement of ubiquitinating enzyme activity A recombinant vector His-UBCH5b containing a polyhistidine tag (His) and UBCH5b was prepared. E. coli was transformed with the vector, the protein was expressed, and affinity purification was carried out using Ni-NTA agarose (Qiagen). […]

Here is how some molecules turned out for IC50.
CC1=NN(c2ccc(C(=O)O)cc2)C(=O)/C1=C\c1ccc2c(c1)OCCO2 [Compound 259]; < 10 µM
CC1=NN(c2ccc(S(N)(=O)=O)cc2)C(=O)/C1=C\c1ccc2ccccc2c1 [Compound 116]; 10 to 20 µM
O=C1/C(=C\c2ccc(CO)o2)C(C2CC2)=NN1c1ccccc1 [Compound 75]; 10 to 20 µM
O=C(O)c1ccc(N2N=C(C3CC3)/C(=C/c3ccc4c(c3)OCCO4)C2=O)cc1 [Compound 319]; < 10 µM
CC(C)(C)OC(=O)N1CCN(C(=O)C2=NN(c3ccccc3)C(=O)C2=Cc2ccc(N3CCCC3)cc2)CC1 [Compound 89]; < 40 µM
NS(=O)(=O)c1ccc(N2N=C(C3CC3)/C(=C/c3ccc(-n4cncn4)cc3)C2=O)cc1 [Compound 111]; < 40 µM
CCCCC1=NN(c2ccc(C(=O)O)cc2)C(=O)/C1=C\c1ccc(N2CCN(c3ccccc3)CC2)cc1 [Compound 434]; < 10 µM

Consider now this further molecule.
## Input Requested read-out: IC50. Entry: COc1cc(/C=C2\C(=O)N(c3ccc(C(=O)O)cc3)N=C2c2ccc(OC)c(OC)c2)ccc1O [Compound 332]
## Output 10 to 20 µM
